Data origin, for the record: paper PMC7725003

- Tested on: E. coli 25922
- Format: cell-based, Escherichia coli
- Protocol conditions: 25922, 24 h
Where no end group is shown, it is not given here.
Field: label. Allowed values: satisfied (MIC < 8 µM) or not satisfied (MIC >= 8 µM).

* WRRWRWRWW-NH2 [W3] | satisfied
* WWWRRRRWW-NH2 [W4] | satisfied
* RLRLRRLLL-NH2 [L9] | not satisfied
* RLLLLRRLR-NH2 [L10] | not satisfied
* RRLLLLRRL-NH2 [L7] | not satisfied
* RWRWRWRWW-NH2 [W5] | satisfied

**Q:** Could you please tell me whether MIC recorded for LRRRLLLLR-NH2 [L6] is less than 8 µM?
**A:** not satisfied

###

Reported MIC values for the following substances.
- Test system: E. coli O78
- Assay type: cell-based, Escherichia coli
- Protocol conditions: O78, 24 h
Where no end group is shown, it is not given here.
Respond numerically; units are µM and should not be typed.

Example substances with recorded MIC:
- WWWRRRRWW-NH2 [W4]: 8
- WWRWWRRRW-NH2 [W1]: 4
- LLRLLRRRL-NH2 [L1]: 8
- RRWWWRWRW-NH2 [W8]: 4

**Q:** What measured MIC goes with WRRWRWWRW-NH2 [W12] ?
**A:** 4

**Q:** Same read-out for RRLLLRLRL-NH2 [L8] ?
**A:** 8

**Q:** Same read-out for LRRRLLLLR-NH2 [L6] ?
**A:** 64

###

- System: Listeria monocytogenes CGMCC 1.1075
- Type: cell-based
- Protocol conditions: CGMCC 1.1075, 24 h
Where no end group is shown, it is not given here.
Reported MBC values for the following substances.
Respond numerically; units are µM and should not be typed.

Example substances with recorded MBC:
• RRLLLLRRL-NH2 [L7] = 32
• RLRLRLRLL-NH2 [L5] = 8

We next turn to a different substance, shown below.
**Q:** What measured MBC goes with WRRRWWWWR-NH2 [W6] ?
**A:** 4

###

Reported MBC values for the following substances.
- Tested on: S. aureus 25923
- Format: cell-based, Staphylococcus aureus
- Protocol conditions: 25923, 24 h
Where no end group is shown, it is not given here.
Respond numerically; units are µM and should not be typed.

Example substances with recorded MBC:
* WWRWWRRRW-NH2 [W1] | 4
* LLRLLRRRL-NH2 [L1] | 64
* WRRRWWWWR-NH2 [W6] | 4
* RRWWWRWRW-NH2 [W8] | 4
* WRRWRWWRW-NH2 [W12] | 4

**Q:** What measured MBC goes with WWRWRRRWW-NH2 [W2] ?
**A:** 4

**Q:** Same read-out for RLRLRLRLL-NH2 [L5] ?
**A:** 16

**Q:** Same read-out for RWRWRRWWW-NH2 [W9] ?
**A:** 4

**Q:** Same read-out for RWWWWRRWR-NH2 [W10] ?
**A:** 4

**Q:** Same read-out for WRRWRWRWW-NH2 [W3] ?
**A:** 8

**Q:** Same read-out for RRLLLRLRL-NH2 [L8] ?
**A:** 128

**Q:** Same read-out for WRRRRWWWW-NH2 [W11] ?
**A:** 4

**Q:** Same read-out for RRWWWWRRW-NH2 [W7] ?
**A:** 4

**Q:** Same read-out for WWWRRRRWW-NH2 [W4] ?
**A:** 4

**Q:** Same read-out for RWRWRWRWW-NH2 [W5] ?
**A:** 4
